Provenance of the data: the kinase profiling compilation of Christmann-Franck et al. (2016)

- EXPERIMENTAL TARGET: NEK2 (human) (UniProt P51955)
- Sequence (P51955 whole entry, looked up): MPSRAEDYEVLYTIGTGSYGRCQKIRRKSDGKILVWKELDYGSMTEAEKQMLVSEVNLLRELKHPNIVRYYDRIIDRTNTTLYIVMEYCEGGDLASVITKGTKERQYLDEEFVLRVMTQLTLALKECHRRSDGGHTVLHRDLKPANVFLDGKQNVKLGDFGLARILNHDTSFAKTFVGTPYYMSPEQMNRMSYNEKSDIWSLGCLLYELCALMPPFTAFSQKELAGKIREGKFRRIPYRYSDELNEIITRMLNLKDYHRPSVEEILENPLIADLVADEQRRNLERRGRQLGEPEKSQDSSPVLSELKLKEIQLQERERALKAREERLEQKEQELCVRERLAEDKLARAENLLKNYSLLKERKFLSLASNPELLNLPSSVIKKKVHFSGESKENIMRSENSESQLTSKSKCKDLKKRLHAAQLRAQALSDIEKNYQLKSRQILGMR
- EXPERIMENT SUMMARY: KINOMEscan competition binding
- CONDITION DETAILS: compound 10.0 µM
For each of the compounds below, state its kinase still bound, per cent of control.
Give bare numbers, in %.

MOLECULE: COc1cc(C(=O)N2CCC(N3CCN(C)CC3)CC2)ccc1Nc1ncc2c(n1)N(C)c1ccccc1C(=O)N2C
UNITS: %
READOUT VALUE: 100
--
MOLECULE: CCN(CC)CCCCNc1ncc2c(n1)N(C)C(=O)N(c1c(Cl)c(OC)cc(OC)c1Cl)C2
UNITS: %
READOUT VALUE: 100
--
MOLECULE: NC(=O)Nc1cc(-c2cccc(F)c2)sc1C(=O)N[C@@H]1CCCNC1
UNITS: %
READOUT VALUE: 75
--
MOLECULE: Cc1n[nH]c2ccc(-c3cncc(OC[C@@H](N)Cc4c[nH]c5ccccc45)c3)cc12
UNITS: %
READOUT VALUE: 100
--
MOLECULE: COc1cc2ncnc(-n3nc(-c4ccccn4)nc3N)c2cc1OC
UNITS: %
READOUT VALUE: 57

List kinase still bound, per cent of control for every entry below, keeping the order given.
1. C[C@@H](Oc1cc(-c2cnn(C3CCNCC3)c2)cnc1N)c1c(Cl)ccc(F)c1Cl
2. CNC(=O)c1cc(Oc2ccc(NC(=O)Nc3ccc(Cl)c(C(F)(F)F)c3)cc2)ccn1
3. O=C(Nc1cccc(Nc2ncc(Br)c(NCCc3cnc[nH]3)n2)c1)N1CCCC1

output:
1: 81; 2: 100; 3: 6.2

---

- EXPERIMENTAL TARGET: MINK1 (human)
- EXPERIMENT SUMMARY: KINOMEscan competition binding
- CONDITION DETAILS: compound 10.0 µM
For each of the compounds below, state its kinase still bound, per cent of control.
One number for each entry, in %.

Some entries whose results are on file:
MOLECULE: COc1cc(N2CCN(C)CC2)ccc1Nc1ncc2c(n1)N(C)c1ccccc1C(=O)N2C
VALUE TYPE: kinase still bound, per cent of control
READOUT VALUE: 100
//
MOLECULE: CS(=O)(=O)N1CCN(Cc2cc3nc(-c4cccc5[nH]ncc45)nc(N4CCOCC4)c3s2)CC1
VALUE TYPE: kinase still bound, per cent of control
READOUT VALUE: 100

Here is another compound to look at.
input: Query: kinase still bound, per cent of control; subject: CNC(=O)c1ccc(Nc2cc(Nc3ccccc3S(=O)(=O)C(C)C)c3cc[nH]c3n2)nc1
output: 100

---

- EXPERIMENTAL TARGET: FLT3 (human)
- EXPERIMENT SUMMARY: KINOMEscan competition binding
- CONDITION DETAILS: compound 10.0 µM
Labelling field: enter true (1) if recorded kinase still bound, per cent of control is less than 4%. Enter false (0) if it equals or exceeds that cut-off.

Some solved cases for reference:
MOLECULE: CCN(CC)CCCCNc1ncc2c(n1)N(C)C(=O)N(c1c(Cl)c(OC)cc(OC)c1Cl)C2
ASSIGNED CATEGORY: false (0)
--
MOLECULE: COc1cc(N2CCN(C)CC2)ccc1Nc1ncc2c(n1)N(C)c1ccccc1C(=O)N2C
ASSIGNED CATEGORY: false (0)
--
MOLECULE: CNC(=O)c1ccc(Nc2cc(Nc3ccccc3S(=O)(=O)C(C)C)c3cc[nH]c3n2)nc1
ASSIGNED CATEGORY: true (1)
--
MOLECULE: CCN1CCN(C(=O)Cc2ccc(Nc3ncc(F)c(Nc4ccc(C(=O)Nc5ccccc5Cl)cc4)n3)cc2)CC1
ASSIGNED CATEGORY: true (1)
--
MOLECULE: Cc1n[nH]c2ccc(-c3cncc(OC[C@@H](N)Cc4c[nH]c5ccccc45)c3)cc12
ASSIGNED CATEGORY: false (0)

input: Consider the molecule C[C@@H](Oc1cc(-c2cnn(C3CCNCC3)c2)cnc1N)c1c(Cl)ccc(F)c1Cl . Is its kinase still bound, per cent of control strictly less than 4%?
output: false (0)

input: Another: C=CC(=O)Nc1ccc(CN(C(=O)Nc2c(Cl)c(OC)cc(OC)c2Cl)c2cc(Nc3ccc(N4CCN(C)CC4)cc3)ncn2)cc1
output: false (0)

input: Another: CS(=O)(=O)N1CCN(Cc2cc3nc(-c4cccc5[nH]ncc45)nc(N4CCOCC4)c3s2)CC1
output: false (0)

input: Another: O=C(Nc1cccc(Nc2ncc(Br)c(NCCc3cnc[nH]3)n2)c1)N1CCCC1
output: true (1)
